Every entry's value here was drawn from patent US10238631B2.

Test system: MCF-7 (ER+, Her2−) human breast cancer cells
Assay: MTT cell viability assay, MCF-7 cells
Format: cell-based
Conditions: MCF7, 24 h, read-out: IC50 on cell viability, MCF-7 (ER+, Her2−)
METRIC_NAME: IC50

>>> value("C=C1C(=O)OC2CC3=C[C@@H](C/C(C)=C/C(OC(=O)CCc4cccc5ccccc45)[C@H]12)OC3=O (stereo partly drawn) [DETD-51]")
"> 7.5 µM"
>>> value("C=C1C(=O)OC2CC3=C[C@@H](C/C(C)=C/C(OC(=O)Cc4ccccc4)[C@H]12)OC3=O (stereo partly drawn) [DETD-43]")
"> 7.5 µM"
>>> value("C=C1C(=O)OC2CC3=C[C@@H](C/C(C)=C/[C@@H](OC(=O)[C@H](OC)c4ccc5ccccc5c4)[C@H]12)OC3=O (stereo partly drawn) [DETD-57]")
"> 7.5 µM"
>>> value("C=C(C)C(=O)O[C@H]1CC2=C[C@@H](C/C(C)=C/[C@H]3OC(=O)[C@@H](CN(C)C)[C@H]13)OC2=O [DETD-1]")
"> 7.5 µM"
>>> value("C=C1C(=O)OC2CC3=C[C@@H](C/C(C)=C/C(OC(=O)C(Cl)Cl)[C@H]12)OC3=O (stereo partly drawn) [DETD-9]")
"> 7.5 µM"
>>> value("C=C1C(=O)OC2CC3=C[C@@H](C/C(C)=C/[C@@H](OC(=O)Cc4coc5ccccc45)[C@H]12)OC3=O (stereo partly drawn) [DETD-59]")
"> 7.5 µM"
>>> value("C=C1C(=O)OC2CC3=C[C@@H](C/C(C)=C/C(OC(=O)/C=C/c4cccc(C(F)(F)F)c4)[C@H]12)OC3=O (stereo partly drawn) [DETD-48]")
"> 7.5 µM"
>>> value("C=C1C(=O)OC2CC3=C[C@@H](C/C(C)=C/C(OC(=O)/C=C/c4cccc(OCC)c4)[C@H]12)OC3=O (stereo partly drawn) [DETD-50]")
"> 7.5 µM"
>>> value("C=C1C(=O)OC2CC3=C[C@@H](C/C(C)=C/C(OC(=O)/C=C/c4ccc(OC)c(OC)c4)[C@H]12)OC3=O (stereo partly drawn) [DETD-49]")
"> 7.5 µM"
